test system: SF-539; assay: NCI tumour cell line growth inhibition, 48 h
Calls of active or inactive are those of the source. No stated cut-off is given here; in the data, active = GI50 up to about 1.1 µM and inactive = higher.
# output must be one of active, inactive

Observe how each entry below is paired with its result.
# compound, discrete-label
data = [
    ("Nc1ccc(C(=O)O)c2[nH]c3ccccc3c(=O)c12", "inactive"),
    ("CCOC(=O)C1(C(=O)OCC)[C@H](c2ccccc2)C2=NO[C@@H]3CCC[C@H]1[C@H]23", "inactive"),
    ("CC1=C(C(=O)Nc2c(C)cccc2C)C(c2ccc3c(c2)OCO3)C(C(=O)Nc2c(C)cccc2C)=C(C)N1", "inactive"),
    ("O=C1c2ccccc2C(=O)N1C/C=N/NS(=O)(=O)c1ccc(F)cc1", "inactive"),
    ("CC(=O)OC(C)(C)C[N+](=O)[O-]", "inactive"),
    ("COC(=O)/C1=C/c2c([nH]c3ccccc23)/C(C(=O)OC)=C\\c2c1[nH]c1ccccc21", "inactive"),
    ("Cc1oc(N)c(S(=O)(=O)c2cc3ccccc3[n+]([O-])c2N)c1C", "inactive"),
    ("COC1CCC(OS(C)(=O)=O)CO1 (stereo unspecified)", "inactive"),
]

Problem: Tell me the assay call for CN(C)C(=S)SCc1ccccc1 please.
Solution: inactive

---

test system: SNB-78; assay: NCI tumour cell line growth inhibition, 48 h
Active and inactive are the calls of the source. No stated cut-off is given here; in the data, active = GI50 up to about 1.1 µM and inactive = higher.
metric-name: GI50

# compound, GI50
data = [
    ("OCCN1CCN2C=C(C3CCCC4N(CCO)CCN34)CCC21 (centres undefined)", "37.9 µM (inactive)"),
    ("C=C(C)CCOC(c1ccccc1)(c1ccccc1)c1ccccc1", "70.1 µM (inactive)"),
    ("COC(=O)C(C(=O)C(=O)Nc1ccc([N+](=O)[O-])cc1)c1nc2ccc([N+](=O)[O-])cc2nc1O (centres undefined)", "> 100 µM (inactive)"),
    ("O=P(O)(OCC(O)O)OCC(O)O", "> 100 µM (inactive)"),
]

Problem: Consider the compound CN(C)c1ccc(/C=C2\Cc3ccccc3C2=O)cc1Br . State its measured GI50.
Solution: 59.8 µM (inactive)

Problem: Consider the compound CCOC(=O)C1=C(Nc2ccccc2)OC/C1=N\NC(=O)Cc1ccccc1 . State its measured GI50.
Solution: > 50 µM (inactive)

Problem: Consider the compound COc1cccc2c(SCC(=O)Nc3ccccc3-c3ccccc3NC(=O)CSc3c4ccccc4nc4c(OC)cccc34)c3ccccc3nc12 . State its measured GI50.
Solution: > 100 µM (inactive)

Problem: Consider the compound C=CCCCCCC(O)C(O)C/C=C\C/C=C\CC (centres undefined) . State its measured GI50.
Solution: > 18.8 µM (inactive)

Problem: Consider the compound CC1CCCCc2nc3c(c(=O)n21)CCCC3 (centres undefined) . State its measured GI50.
Solution: > 100 µM (inactive)

---

tested on: M14; experiment: NCI tumour cell line growth inhibition, 48 h
Active and inactive are the calls of the source. No stated cut-off is given here; in the data, active = GI50 up to about 1.1 µM and inactive = higher.
Measured GI50, listed per entry for reference.

Example results:
# compound, GI50
records = [
    ("NCCCNC1(c2cc3ccccc3s2)CCCCC1", "1.8 µM (inactive)"),
    ("Nc1c2ccccc2nc2ccc(C(=O)Nc3ccc(S(N)(=O)=O)cc3)cc12", "> 100 µM (inactive)"),
    ("COC(=O)c1ccccc1/C=C1\\Cc2c(C)cc(C)cc2C1=O", "> 100 µM (inactive)"),
]

Problem: Consider the compound CN(C)c1ccc(/C=C2\Cc3ccccc3C2=O)cc1Br . State its measured GI50.
Solution: 54.6 µM (inactive)

Problem: Consider the compound O=C(O)Cc1cccc2c(=O)c3cccc([N+](=O)[O-])c3[nH]c12 . State its measured GI50.
Solution: 27.8 µM (inactive)

Problem: Consider the compound CCCCCCCCCCCCCCCCOCC(O)CO (configuration not stated) . State its measured GI50.
Solution: 22.8 µM (inactive)

Problem: Consider the compound CN(C)C(=S)SCc1ccccc1 . State its measured GI50.
Solution: > 100 µM (inactive)

Problem: Consider the compound [N-]=[N+]=NC1C(Cl)C(=O)NC(=O)N1[C@H]1C[C@H](O)[C@@H](CO)O1 (some centres not stated) . State its measured GI50.
Solution: > 100 µM (inactive)

Problem: Consider the compound CCCCN(CCCC)C(=O)C(=O)C(C#N)c1ccc(C)cc1 (configuration not stated) . State its measured GI50.
Solution: > 100 µM (inactive)

Problem: Consider the compound C=CCn1c(=S)sc2c(O)ncnc21 . State its measured GI50.
Solution: > 100 µM (inactive)

Problem: Consider the compound O=C(Cn1cc(Br)c(=O)[nH]c1=O)c1ccc(-c2ccccc2)cc1 . State its measured GI50.
Solution: > 15.1 µM (inactive)

Problem: Consider the compound [O-][n+]1ccccc1S [PYRITHIONE ZINC] . State its measured GI50.
Solution: 1.25 µM (inactive)
